Each record here notes measured viability, T/C.
tested on: 966289-007-R4-J1-PDC complex spheroid viability; test: Anticancer human tumor 966289-007-R4-J1-PDC patient-derived pancreatic adenocarcinoma cell line growth inhibition [RAS]; conditions: second compound 0.3 µM; first compound 0.1 µM; stronger effect = lower value
Use % as the unit, but write only the number.

Recorded viability, T/C, per entry:
O=C(c1ccc(F)c(F)c1Nc1ccc(I)cc1F)N1CC(O)([C@@H]2CCCCN2)C1 + CCn1c(-c2cc(N3CCN(C)CC3)cnc2C(C)OC)c2c3cc(ccc31)-c1csc(n1)CC(NC(=O)C1CC1C)C(=O)N1CCCC(N1)C(=O)OCC(C)(C)C2 ... 23.7
C[C@@H](NC(=O)c1ncnc(N)c1Cl)c1ncc(C(=O)Nc2cc(C(F)(F)F)c(Cl)cn2)s1 + CCn1c(-c2cccnc2C(C)OC)c2c3cc(ccc31)N1CCOC(CC(NC(=O)C(C(C)C)N(C)C(=O)C3(F)CCN(C(=O)C#CC(C)(C)N(C)C)CC3)C(=O)N3CCCC(N3)C(=O)OCC(C)(C)C2)C1 ... 91.7

Input CCN1CCN(Cc2ccc(Nc3ncc(F)c(-c4cc(F)c5nc(C)n(C(C)C)c5c4)n3)nc2)CC1 + CCn1c(-c2cc(N3CCN(C)CC3)cnc2C(C)OC)c2c3cc(ccc31)-c1csc(n1)CC(NC(=O)C1CC1C)C(=O)N1CCCC(N1)C(=O)OCC(C)(C)C2 . Output viability, T/C: 111

Input NC1c2ccccc2OC12CCN(c1cnc3c(N4CCCc5ncccc54)n[nH]c3n1)CC2 (centres undefined) + CCn1c(-c2cc(N3CCN(C)CC3)cnc2C(C)OC)c2c3cc(ccc31)-c1csc(n1)CC(NC(=O)C1CC1C)C(=O)N1CCCC(N1)C(=O)OCC(C)(C)C2 . Output viability, T/C: 88.1

====

Each record here notes measured viability, T/C.
System: 966289-007-R4-J1-PDC complex spheroid viability
Experiment: Anticancer human tumor 966289-007-R4-J1-PDC cell line growth inhibition [RAS]
Settings: second compound 0.0316 µM; first compound 0.03 µM; stronger effect = lower value
From the text: RAS pathway inhibitors in Combinations in Complex Spheroids A high-throughput screen of multi-cell type tumor spheroids was designed to identify active combinations of RAS pathway inhibitors and targeted small molecules. Complex spheroids include a stromal component modeled by human endothelial cells (HUVEC) and fibroblasts modeled by human mesenchymal stem cells (MSCs). […] Compounds. […] If the clinical Cmax for an agent had not been determined, the highest concentration tested was 10 microM. […]

CCc1c2c(nc3ccc(O)cc13)-c1cc3c(c(=O)n1C2)COC(=O)[C@]3(O)CC + C#Cc1c(F)ccc2cc(O)cc(-c3ncc4c(N5CC6CCC(C5)N6)nc(OCC56CCCN5CC(F)C6)nc4c3F)c12 ... 0.94%
CC1(C)CCC(Nc2ncc(C(F)(F)F)c(-c3c[nH]c4c(P(C)(C)=O)c(C#N)ccc34)n2)CN1 (centres undefined) + C#Cc1c(F)ccc2cc(O)cc(-c3ncc4c(N5CC6CCC(C5)N6)nc(OCC56CCCN5CC(F)C6)nc4c3F)c12 ... 19.9%
CC1(C)CCC(Nc2ncc(C(F)(F)F)c(-c3c[nH]c4c(P(C)(C)=O)c(C#N)ccc34)n2)CN1 (centres undefined) + C=CC(=O)N1CCN(c2nc(OCC3CCCN3C)nc3c(F)c(-c4nc(N)cc(C)c4C(F)(F)F)c(Cl)cc23)C(C)C1 ... 15.9%

Input CCc1c2c(nc3ccc(O)cc13)-c1cc3c(c(=O)n1C2)COC(=O)[C@]3(O)CC + C=CC(=O)N1CCN(c2nc(OCC3CCCN3C)nc3c(F)c(-c4nc(N)cc(C)c4C(F)(F)F)c(Cl)cc23)C(C)C1 . Output viability, T/C: 0.91%

====

test system: 966289-007-R4-J1-PDC complex spheroid viability; assay: Anticancer human tumor 966289-007-R4-J1-PDC cell line growth inhibition [RAS]; details: compound 0.0316 µM; stronger effect = lower value
Each record here notes measured viability, T/C.

Recorded viability, T/C, per entry:
CC(C)n1nc(-c2ccc3oc(N)nc3c2)c2c(N)ncnc21 ... 52.2% [middle of 4 runs]
C=CC(=O)Nc1cc(Nc2nccc(-c3cn(C)c4ccccc34)n2)c(OC)cc1N(C)CCN(C)C ... 100% [middle of 4 runs]
CC(C)NCC(C(=O)N1CCN(c2ncnc3c2C(C)CC3O)CC1)c1ccc(Cl)cc1 (stereo unspecified) ... 105% [middle of 4 runs]
O=C(c1ccc(F)c(F)c1Nc1ccc(I)cc1F)N1CC(O)([C@@H]2CCCCN2)C1 ... 90.4% [middle of 4 runs]
C[C@@H](NC(=O)c1ncnc(N)c1Cl)c1ncc(C(=O)Nc2cc(C(F)(F)F)c(Cl)cn2)s1 ... 106% [middle of 4 runs]

Input CC(=O)OC12COC1CC(O)C1(C)C(=O)C(O)C3=C(C)C(OC(=O)C(O)C(NC(=O)OC(C)(C)C)c4ccccc4)CC(O)(C(OC(=O)c4ccccc4)C21)C3(C)C (stereo unspecified) . Output viability, T/C: 7.82% [middle of 4 runs]

====

tested on: 966289-007-R4-J1-PDC complex spheroid viability; test: Anticancer human tumor 966289-007-R4-J1-PDC cell line growth inhibition [RAS]; details: second compound 0.0316 µM; first compound 3.16 µM; stronger effect = lower value;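 further: spheroids exposed to agents for one week before readout; percent viability relative to DMSO vehicle control wells as 100%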
Each record here notes measured viability, T/C.
Use % as the unit, but write only the number.

Recorded viability, T/C, per entry:
NC1c2ccccc2OC12CCN(c1cnc3c(N4CCCc5ncccc54)n[nH]c3n1)CC2 (stereo not drawn) + C#Cc1c(F)ccc2cc(O)cc(-c3ncc4c(N5CC6CCC(C5)N6)nc(OCC56CCCN5CC(F)C6)nc4c3F)c12 ... 108
CC(C)NCC(C(=O)N1CCN(c2ncnc3c2C(C)CC3O)CC1)c1ccc(Cl)cc1 (stereo not drawn) + C#Cc1c(F)ccc2cc(O)cc(-c3ncc4c(N5CC6CCC(C5)N6)nc(OCC56CCCN5CC(F)C6)nc4c3F)c12 ... 66.9

# evaluate next
Input Cc1nc(N2CCC3(CC2)COC(C)C3N)c(CO)nc1Sc1ccnc(N)c1Cl (stereo not drawn) + C#Cc1c(F)ccc2cc(O)cc(-c3ncc4c(N5CC6CCC(C5)N6)nc(OCC56CCCN5CC(F)C6)nc4c3F)c12 . Output viability, T/C: 102

====

tested on: 966289-007-R4-J1-PDC complex spheroid viability; assay: Anticancer human tumor 966289-007-R4-J1-PDC cell line growth inhibition [RAS]; conditions: compound 10 µM; active = viability on the fitted dose curve at most 10% of control; inactive = the rest;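 further: spheroids exposed to agents for one week before readout; percent viability relative to DMSO vehicle control wells as 100%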
Select the correct class. Options are t (active), f (inactive) and nothing else.

[in] # fetch the recorded call for CCC(CC)c1cc(NC2CCC(N)C2)n2nccc2n1 (stereo not given) here
[out] t

====

tested on: 966289-007-R4-J1-PDC complex spheroid viability; test: Anticancer human tumor 966289-007-R4-J1-PDC cell line growth inhibition [RAS]; settings: second compound 1 µM; first compound 0.316 µM; stronger effect = lower value;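 further: spheroids exposed to agents for one week before readout; percent viability relative to DMSO vehicle control wells as 100%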
readout.kind: viability, T/C (%)
Use % as the unit, but write only the number.

O=C(c1ccc(F)c(F)c1Nc1ccc(I)cc1F)N1CC(O)([C@@H]2CCCCN2)C1 + C#Cc1c(F)ccc2cc(O)cc(-c3ncc4c(N5CC6CCC(C5)N6)nc(OCC56CCCN5CC(F)C6)nc4c3F)c12 ... 56.6
CC(=O)OC12COC1CC(O)C1(C)C(=O)C(O)C3=C(C)C(OC(=O)C(O)C(NC(=O)OC(C)(C)C)c4ccccc4)CC(O)(C(OC(=O)c4ccccc4)C21)C3(C)C (centres undefined) + C#Cc1c(F)ccc2cc(O)cc(-c3ncc4c(N5CC6CCC(C5)N6)nc(OCC56CCCN5CC(F)C6)nc4c3F)c12 ... 21.2
C[C@@H](NC(=O)c1ncnc(N)c1Cl)c1ncc(C(=O)Nc2cc(C(F)(F)F)c(Cl)cn2)s1 + C#Cc1c(F)ccc2cc(O)cc(-c3ncc4c(N5CC6CCC(C5)N6)nc(OCC56CCCN5CC(F)C6)nc4c3F)c12 ... 134

Input C=CC(=O)Nc1cc(Nc2nccc(-c3cn(C)c4ccccc34)n2)c(OC)cc1N(C)CCN(C)C + C#Cc1c(F)ccc2cc(O)cc(-c3ncc4c(N5CC6CCC(C5)N6)nc(OCC56CCCN5CC(F)C6)nc4c3F)c12 . Output viability, T/C: 97.9

====

Each record here notes measured viability, T/C.
system: 966289-007-R4-J1-PDC complex spheroid viability; test: Anticancer human tumor 966289-007-R4-J1-PDC cell line growth inhibition [RAS]; settings: second compound 0.000949 µM; first compound 3.16 µM; stronger effect = lower value;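 further: spheroids exposed to agents for one week before readout; percent viability relative to DMSO vehicle control wells as 100%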
Use % as the unit, but write only the number.

Recorded viability, T/C, per entry:
CC(=O)OC12COC1CC(O)C1(C)C(=O)C(O)C3=C(C)C(OC(=O)C(O)C(NC(=O)OC(C)(C)C)c4ccccc4)CC(O)(C(OC(=O)c4ccccc4)C21)C3(C)C (centres undefined) + CCn1c(-c2cccnc2C(C)OC)c2c3cc(ccc31)N1CCOC(CC(NC(=O)C(C(C)C)N(C)C(=O)C3(F)CCN(C(=O)C#CC(C)(C)N(C)C)CC3)C(=O)N3CCCC(N3)C(=O)OCC(C)(C)C2)C1 ... 38
NC1c2ccccc2OC12CCN(c1cnc3c(N4CCCc5ncccc54)n[nH]c3n1)CC2 (centres undefined) + CCn1c(-c2cccnc2C(C)OC)c2c3cc(ccc31)N1CCOC(CC(NC(=O)C(C(C)C)N(C)C(=O)C3(F)CCN(C(=O)C#CC(C)(C)N(C)C)CC3)C(=O)N3CCCC(N3)C(=O)OCC(C)(C)C2)C1 ... 82.1
CC(=O)OC12COC1CC(O)C1(C)C(=O)C(O)C3=C(C)C(OC(=O)C(O)C(NC(=O)OC(C)(C)C)c4ccccc4)CC(O)(C(OC(=O)c4ccccc4)C21)C3(C)C (centres undefined) + CCn1c(-c2cc(N3CCN(C)CC3)cnc2C(C)OC)c2c3cc(ccc31)-c1csc(n1)CC(NC(=O)C1CC1C)C(=O)N1CCCC(N1)C(=O)OCC(C)(C)C2 ... 29.3

# evaluate next
Input CC(Nc1ccc2c(c1)OCCn1cc(N3C(=O)OCC3C(F)F)nc1-2)C(N)=O (centres undefined) + CCn1c(-c2cccnc2C(C)OC)c2c3cc(ccc31)N1CCOC(CC(NC(=O)C(C(C)C)N(C)C(=O)C3(F)CCN(C(=O)C#CC(C)(C)N(C)C)CC3)C(=O)N3CCCC(N3)C(=O)OCC(C)(C)C2)C1 . Output viability, T/C: 90.5

Data provenance: PubChem BioAssay AID2060897
